src = ChEMBL document CHEMBL1125966

target_or_test_system: Thromboxane A2 receptor (Homo sapiens)
Sequence (P21731 whole entry): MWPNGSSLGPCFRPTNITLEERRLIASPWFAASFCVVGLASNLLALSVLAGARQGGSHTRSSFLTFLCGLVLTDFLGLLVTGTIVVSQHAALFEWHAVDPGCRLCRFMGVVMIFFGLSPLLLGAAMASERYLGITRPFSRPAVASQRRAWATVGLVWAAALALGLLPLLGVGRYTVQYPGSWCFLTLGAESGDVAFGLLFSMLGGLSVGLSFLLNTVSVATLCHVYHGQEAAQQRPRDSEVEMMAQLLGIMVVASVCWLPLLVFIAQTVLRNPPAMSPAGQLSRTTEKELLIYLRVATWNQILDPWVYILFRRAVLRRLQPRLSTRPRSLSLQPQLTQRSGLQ
protocol_details: In vitro thromboxane A2 receptor antagonism through inhibition of U-46619 induced platelet aggregation in human whole blood
Type: functional, tissue-based
assay_setup: read-out: pA2 (converted)
Kb listing for selected molecules.
Response body: numeric value in nM, unit text excluded.

A selection of reference data follows.
>  <record_smiles>
O=C(O)CCC/C=C(/c1cccnc1)c1cccc(CCNS(=O)(=O)c2ccc([N+](=O)[O-])cc2)c1

>  <Kb (nM)>
631

$$$$
>  <record_smiles>
O=C(O)CCC/C=C(/c1cccnc1)c1cccc(CCNS(=O)(=O)c2ccccc2[N+](=O)[O-])c1

>  <Kb (nM)>
1000

$$$$
>  <record_smiles>
O=C(O)CCCO/N=C(/c1cccnc1)c1cccc(CCNS(=O)(=O)c2ccc(I)cc2)c1

>  <Kb (nM)>
1580

$$$$
>  <record_smiles>
O=C(O)CCC/C=C(/c1cccnc1)c1cccc(CCCNS(=O)(=O)c2ccccc2)c1

>  <Kb (nM)>
1000

$$$$
>  <record_smiles>
O=C(O)CCC/C=C(/c1cccnc1)c1cccc(CCNS(=O)(=O)c2ccc(I)cc2)c1

>  <Kb (nM)>
631

$$$$

// Kb lookup, molecule = O=C(O)CCCCO/N=C(/c1cccnc1)c1cccc(CCNS(=O)(=O)c2ccc(I)cc2)c1 , result: 2000

// Kb lookup, molecule = CC(C)(CNS(=O)(=O)c1ccc(I)cc1)c1cccc(/C(=C\CCCC(=O)O)c2cccnc2)c1 , result: 200

====

target_or_test_system: UniProtKB P24557
Sequence (P24557 whole entry): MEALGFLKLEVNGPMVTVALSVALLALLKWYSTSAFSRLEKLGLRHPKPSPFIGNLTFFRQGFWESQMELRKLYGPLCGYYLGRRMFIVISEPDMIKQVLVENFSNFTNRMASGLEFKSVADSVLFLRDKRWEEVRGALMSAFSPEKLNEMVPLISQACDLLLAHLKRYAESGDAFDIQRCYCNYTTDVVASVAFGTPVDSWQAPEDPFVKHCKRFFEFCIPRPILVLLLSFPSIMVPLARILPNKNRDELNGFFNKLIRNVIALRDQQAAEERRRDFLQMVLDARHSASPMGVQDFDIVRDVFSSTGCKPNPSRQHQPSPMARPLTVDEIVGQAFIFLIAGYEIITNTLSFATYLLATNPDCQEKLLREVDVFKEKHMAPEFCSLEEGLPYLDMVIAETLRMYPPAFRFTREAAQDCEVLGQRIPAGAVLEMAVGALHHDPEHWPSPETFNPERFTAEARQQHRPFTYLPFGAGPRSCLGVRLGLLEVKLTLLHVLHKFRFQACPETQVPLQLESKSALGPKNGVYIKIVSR
protocol_details: In vitro inhibition of collagen-induced thromboxane A2 production in human whole blood
quantity_measured: pIC50
Conceptually, pIC50 converts a concentration in mol/L into minus its log10.

// pIC50 lookup, compound = O=C(O)CCC/C=C(/c1cccnc1)c1cccc(CCNS(=O)(=O)c2ccc(F)cc2)c1 , result: 7.50

// pIC50 lookup, compound = O=C(O)CCC/C=C(/c1cccnc1)c1cccc(CCNS(=O)(=O)c2ccccc2)c1 , result: 7.30

// pIC50 lookup, compound = O=C(O)CCC/C=C(/c1cccnc1)c1cccc(CCNS(=O)(=O)c2ccc(I)cc2)c1 , result: 7.50
